# Tested on: P. falciparum stage V gametocytes
# Design: BacTiter-Glo ATP luminescence viability of purified stage V gametocytes in 384-well plates, per cent inhibition versus DMSO
# cond: 48 h, 5 µM; inhibitor
Among all 13,000 compounds or so, about 3,200 (25%) showed an effect of 50% or more. Some of the results follow.
Each entry below lists one item and its recorded % Inhibition value.
The reply should read as a number followed by its unit.

Some entries whose results are on file:
compound: O=C(/C=C/c1ccc(Cl)c(Cl)c1)N1CCC2CC(N3CCC(c4c[nH]c5ccccc45)CC3)CCC2C1 (stereo not shown)
% Inhibition: -29.29%

compound: O=C(/C=C/c1ccc(Cl)c(Cl)c1)N1CCC(CCCN2CCC(c3c[nH]c4ccccc34)CC2)CC1
% Inhibition: 25.74%

compound: O=C(/C=C/c1ccc(Cl)c(Cl)c1)N1CCC(CN2C3CCC2CC(c2c[nH]c4ccccc24)C3)CC1 (stereo not shown)
% Inhibition: 116.4%

// lookup % Inhibition for COc1ccc2[nH]cc(C3CC4CCC(C3)N4CCC3CCN(C(=O)/C=C/c4ccc(Cl)c(Cl)c4)CC3)c2c1 (stereo not shown) 106%

Subsequent entry: COC(=O)c1ccc2[nH]cc(C3CCN(CCC4CCN(C(=O)/C=C/c5ccc(Cl)c(Cl)c5)CC4)CC3)c2c1 19.69%

Subsequent entry: O=C(/C=C/c1ccc(Cl)c(Cl)c1)N1CCC(CN2CCC(c3c[nH]c4ccccc34)C(O)C2)CC1 (stereo not shown) -12.75%

Subsequent entry: O=C(/C=C/c1ccc(Cl)c(Cl)c1)N1CCC(CN2CCC(Cc3c[nH]c4ccccc34)CC2)CC1 -20.89%
